Sourced from ChEMBL document CHEMBL3507680

Assay: Human HepG2 cell viability assay in 384 well format
Assay type: toxicity, cell-based
Set-up: dose 125 nL, time 70.5 hour; concentration not given beside the values
Conditions: HepG2 cells, read-out: Inhibition
Form field: cytotoxicity at 70.5 h (one value per entry).
RECORDED_METRIC: cytotoxicity at 70.5 h (%)

In [3]: df
Out[3]:
                                    compound  units_symbol  observed_measurement
 0  CCn1ncc2c1CN(C(=O)Cc1cccs1)CC2COC (configuration not stated)             %                 -7.83
 1  O=C(NCc1ccc(F)cc1)NCC(O)(c1cccs1)C1CC1 (configuration not stated)             %                 -8.72
 2  COc1ccc2c(ccn2CCC(=O)/N=c2\[nH]nc(C3CCCO3)s2)c1 (configuration not stated)             %                 -15.5
 3      O=C(c1cncc(F)c1)N1CCC(c2ncc[nH]2)CC1             %                 -7.04
 4     COCC(=O)Nc1cnc(N2CCN(c3ccccc3)CC2)nc1             %                  2.64
 5  COC1COC2(CCN(Cc3ccccc3Cl)CC2)C1 (configuration not stated)             %                 -14.5
 6       Cc1nnc(NC(=O)CCc2c(C)nn3cnnc3c2C)s1             %                 -7.03
 7             Cc1cc(=O)c2cc(F)ccc2n1CC(=O)O             %                  -3.7
 8  NCC1CCN(c2nc(C3CCCC3)nc3c2CCNCC3)C1 (configuration not stated)             %                  21.5
 9  CCOC(=O)C1CCCCN1Cc1c[nH]nc1-c1cc2ccccc2o1 (configuration not stated)             %                 -7.32
10  Cc1cc(N2CCOCC2)ccc1NC(C)c1nc(C(C)(C)C)no1 (configuration not stated)             %                 -6.63
11        CCn1cc(C(=O)N(C)Cc2c(F)cccc2Cl)cn1             %                  -2.9
12  CN(C)C(=O)N1CCN(C(=O)c2ccc(Cl)cc2)CC2(CNC(=O)C2)C1 (configuration not stated)             %                    11
13  O=C(NC1CCCN(CCCc2ccccc2)C1)c1ccncc1 (configuration not stated)             %                 -2.32
14  Cc1n[nH]cc1CNC(C(=O)N1CCCCC1)c1ccccc1 (configuration not stated)             %                  3.13
15  Cc1noc(C)c1CN1CCO[C@H]2CN(Cc3cccnc3)C[C@H]21             %                 -4.34
16  COc1cccc(CC(=O)N2CCCSCC2CN2CCCC2)c1 (configuration not stated)             %                 -3.04
17  Cc1cc(Cc2ccc(S(=O)(=O)N3CCSCC3)cc2)c(=O)[nH]n1             %                   1.5
18  Cc1cc(C)n(CC2CCCCN2C(=O)c2ccc(C(N)=O)cc2)n1 (configuration not stated)             %                   -12
19  CCCNC(=O)N1CCc2ccc(S(=O)(=O)N3CCOCC3)cc2C1             %                 -16.2
20  CSCC(=O)N1CCOC(c2nc(C)n[nH]2)C1 (configuration not stated)             %                 -12.3
21  CN(C)c1nc(N2CCCC2)nc2c1CCN(Cc1nccn1C)CC2             %                  8.52
22  O=C(CC1CC1)N1CC[C@H]2OCC[C@@]2(COc2ncccc2F)C1             %                 -21.5
23  CC(=O)N(C)c1nc(CN2CCCC2Cn2cncn2)cs1 (configuration not stated)             %                 -2.86
24  CN(CCCN1CCOCC1)[C@@H]1c2ccccc2C2(CCNCC2)[C@H]1O             %                 -7.93
25     COc1c(CNCc2ccnc(N(C)C)c2)c(C(C)C)nn1C             %                 0.688
26     CCn1c(Cn2cncn2)nnc1C1CCN(C2CCNCC2)CC1             %                 -5.11
27  CN(C)C(=O)N1CCN(CCCOc2ccccc2)[C@H]2CS(=O)(=O)C[C@H]21             %                 -5.64
28     COc1ccc2nnc(CCCC(=O)NCc3ccccc3OC)n2n1             %                 -15.5
29  Nc1cc(C(=O)N2CCCC3(C=Cc4ccccc4O3)CC2)ccn1 (configuration not stated)             %                 -4.49
30     O=C(Nc1cc(-c2ccccc2)on1)N1CCN(CCO)CC1             %                 -6.53
31          CCN1CC2(CCC1=O)CCN(Cc1nncn1C)CC2             %                 -5.87
32  O=C(CCc1nnc(-c2ccsc2)o1)NCC1CCN(C2CC2)C1 (configuration not stated)             %                 -4.06
33              O=C(c1sccc1-n1cnnn1)N1CCCCC1             %                 -6.17
34       CC(C)(C)Cc1noc2ncc(C(=O)N3CCC3)cc12             %                 -6.81
35  O=C(N[C@@H]1CCC[C@@H](N2CCOCC2)[C@@H]1O)c1cnn2cccnc12             %                 -1.42
36   CC(C)c1ocnc1C(=O)Nc1cccc(Cn2ccccc2=O)c1             %                    19
37  CC(C)(C)c1nnc2n1C(C(=O)N1CCOCC1)CC2 (configuration not stated)             %                 -14.7
38          O=C1OCCN1CCOc1nc(-c2ccccc2Cl)no1             %                 -4.69
39  Cc1cc(CNC(=O)C2CCC(=O)N(Cc3ccccc3F)C2)on1 (configuration not stated)             %                 -2.07
40  Cc1cc(C)n(-c2ccc(N3CCC4(CC3)OCC(C)O4)nc2)n1 (configuration not stated)             %                 -8.82
41  CCC(O)CN1CCN(C(=O)c2cc(Cl)cc3cccnc23)CC1 (configuration not stated)             %                  18.2
42          O=C(CCc1nccs1)N1CCN(c2cccnn2)CC1             %                 -3.92
43  COc1ccc(CC(=O)N2CCCC2Cn2cc(C)cn2)c(OC)c1 (configuration not stated)             %                -0.475
44  COCCn1ccc2cc(C(=O)NC3CCOC(C)(C)C3)ccc21 (configuration not stated)             %                 -2.78
45  CN(C)c1ccc(C(CNS(=O)(=O)c2cccs2)N2CCCC2)cc1 (configuration not stated)             %                  -2.5
46  Cc1ccc(OCCC(=O)NC(C)c2ccncc2)cc1 (configuration not stated)             %                 -2.16
